I'd be grateful if you could share measured inhibition at 10 µM for these entries.
- System: murine Syk tyrosine kinase protein (GST:Syk 6-242) (Mus musculus, UniProt P48025)
- Construct: made in house
- Test Method Notes: ADA method: displacement of the binding of scFv G4G11 with Syk (ELISA)
- Condition: small molecules at 10 μM, scFv G4G11 100 nM; read-out: In vit. inhib.: mean inhibition % of the binding of scFv G4G11 with Syk in the ADA method
Answers are plain numbers, in %.

See these solved cases before continuing.
CCOC(=O)c1[nH]c(N2C(=O)C(O)=C(C(=O)c3ccccc3)C2c2ccc(OC)cc2)nc1C (centres unmarked) [Molecule 12]	69
COC(=O)c1ccc(NC(=O)CN(c2cccc(OC)c2)S(=O)(=O)c2ccccc2)cc1 [Molecule 81]	20
CCOC(=O)c1ccc(NC(=O)CSc2nnc(-c3ccco3)c(-c3ccco3)n2)cc1 [Molecule 54]	43
CCOC(=O)C1=C(C)NC2=C(C(=O)c3ccccc32)C1c1cc(Br)ccc1OCC(=O)O (centres unmarked) [Molecule 3]	81

Please give inhibition at 10 µM for each item listed below.
1. CN(C)S(=O)(=O)c1ccc(C(=O)C2=C(O)C(=O)N(CCCN3CCOCC3)C2c2cccnc2)cc1 (centres unmarked) [Molecule 65]
2. C=CCn1c(SCC(=O)Nc2cccc(OC)c2)nnc1C(C)NC(=O)c1ccccc1 (centres unmarked) [Molecule 66]
3. COc1ccc(C)cc1NC(=O)c1ccc(CN2CCC(Cc3ccccc3)CC2)cc1 [Molecule 17]
4. COc1ccc(OC)c(C2C(C(=O)c3ccc(C)cc3)=C(O)C(=O)N2Cc2cccnc2)c1 (centres unmarked) [Molecule 11]
5. C=CCn1c(CNC(=O)c2cccc(C)c2)cnc1SCC(=O)Nc1cccc(C(=O)OC(C)C)c1 [Molecule 75]
6. COc1ccc(OCC(=O)NCc2cc(-c3nn(C)c(=O)c4ccccc34)ccc2C)cc1 [Molecule 72]

A:
37
35
63
70.5
27
28

Please give inhibition at 10 µM for each item listed below.
1. COc1ccc(OC)c(C2C(C(=O)c3ccc(F)cc3)=C(O)C(=O)N2CCCN2CCOCC2)c1 (centres unmarked) [Molecule 43]
2. Cn1c(SCC(=O)NCC2CCCO2)nnc1-c1ccc(NC(=O)c2ccccc2Cl)cc1 (centres unmarked) [Molecule 47]
3. Cc1cccc(OCC(=O)Nc2cccc3c(NC(=O)COc4cccc(C)c4)cccc23)c1 [Molecule 20]
4. CCOC(=O)c1ccc(N2C(=O)C(O)=C(C(=O)c3ccccc3)C2c2ccc(ON)cc2OC)cc1 (centres unmarked) [Molecule 6]

A:
1. 48.5
2. 47.5
3. 60
4. 73.5

Please give inhibition at 10 µM for each item listed below.
1. COc1ccccc1C(=O)Nc1ccc(-c2nnc(SCC(=O)c3ccccc3)n2C)cc1 [Molecule 15]
2. CCOc1ccc(NC(=O)CC2C(=O)N(c3ccc(OC)cc3)C(=S)N2CCN2CCOCC2)cc1 (centres unmarked) [Molecule 84]
3. COC(=O)c1ccc(NC(=O)CC2C(=O)N(c3ccccc3)C(=O)N2Cc2ccc3c(c2)OCO3)cc1 (centres unmarked) [Molecule 77]
4. Cc1cc(C)c(OCC(=O)N2CCN(C(=O)COc3c(C)cc(C)cc3C)CC2)c(C)c1 [Molecule 58, 1,4-bis [(mesityloxy)acetyl] piperazine]
5. O=C(C1=C(O)C(=O)N(CCCN2CCOCC2)C1c1ccccc1F)c1ccc(Cl)cc1 (centres unmarked) [Molecule 44]
6. Cc1cc(C(=O)Nc2ccccc2C(=O)O)ccc1NC(=O)COc1ccc(C(C)C)cc1 [Molecule 49]
7. O=C(Nc1ccccc1)c1ccc(NCCN2CCOCC2)c(S(=O)(=O)N2CCOCC2)c1 [Molecule 46]

A:
[67.5, 19, 26, 40, 48.5, 46.5, 48]

====

- System: murine Syk tyrosine kinase protein (GST:Syk 6-242) (Mus musculus)
- Construct: made in house
- Test Method Notes: ADA method: displacement of the binding of scFv G4G11 with Syk (ELISA)
- Condition: small molecules at 10 μM, scFv G4G11 100 nM; read-out: In vit. inhib.: mean inhibition % of the binding of scFv G4G11 with Syk in the ADA method
Attribute Measured: inhibition at 10 µM (%)
Answers are plain numbers, in %.

See these solved cases before continuing.
COc1cc(C2C(C(=O)c3ccc(Cl)cc3)=C(O)C(=O)N2CCCN2CCOCC2)cc(OC)c1OC (centres unmarked)	56.5
Cc1ccc(S(=O)(=O)N(CC(=O)N2CCN(Cc3ccccc3)CC2)c2ccc(C)c(C)c2)cc1	47
COc1ccc(C2C(C(=O)c3ccco3)=C(O)C(=O)N2CCN2CCOCC2)cc1OC (centres unmarked)	50
CC(C)c1ccc(C2C(C(=O)c3ccc(F)cc3)=C(O)C(=O)N2CCN2CCOCC2)cc1 (centres unmarked)	48.5
COc1ccc(C2C(C(=O)c3ccc(Cl)cc3)=C(O)C(=O)N2CCN2CCOCC2)cc1 (centres unmarked)	50
COc1ccc(C2C(C(=O)c3cccs3)=C(O)C(=O)N2CCCn2ccnc2)c(OC)c1 (centres unmarked)	81

Please give inhibition at 10 µM for each item listed below.
1. CCOC(=O)c1ccc(NC(=O)CC2C(=O)N(c3ccc(Cl)cc3)C(=S)N2Cc2cccnc2)cc1 (centres unmarked)
2. N#CC1=C(N)Oc2[nH]nc(-c3ccccc3)c2C1c1cccc(OC(=O)c2ccco2)c1 (centres unmarked)

A:
[39.5, 42]

====

- Test system: RBL-2H3 cells
- Test Method Notes: cells
- Assay type: cell-based, rat
- Condition: Rattus norvegicus; RBL-2H3 cells; read-out: Degran. IC50: concentration inhibiting mast cell degranulation by 50%
Attribute Measured: IC50

See these solved cases before continuing.
CCOC(=O)c1[nH]c(N2C(=O)C(O)=C(C(=O)c3ccccc3)C2c2ccc(OC)cc2)nc1C (centres unmarked)	> 10 µg/mL
O=C(Nc1cccc2ccccc12)OCCn1nnnc1C1(N2CCOCC2)CCCCC1	> 10 µg/mL
CCOC(=O)c1sc(N2C(=O)C(O)=C(C(=O)c3ccc(F)cc3)C2c2ccc(C)cc2)nc1C (centres unmarked)	~10 µg/mL
COc1ccc(S(=O)(=O)N(CCc2ccccc2)CC(=O)Nc2ccc(C(N)=O)cc2)cc1	> 10 µg/mL
COc1ccc(C2C(C(=O)c3ccco3)=C(O)C(=O)N2CCN2CCOCC2)cc1OC (centres unmarked)	> 10 µg/mL
COc1cccc(C2C(C(=O)c3ccc(C)o3)=C(O)C(=O)N2CCN2CCOCC2)c1 (centres unmarked)	> 10 µg/mL

Please give IC50 for each item listed below.
1. Cn1c(SCC(=O)NCC2CCCO2)nnc1-c1ccc(NC(=O)c2ccccc2Cl)cc1 (centres unmarked)
2. COc1ccccc1C(=O)Nc1ccc(-c2nnc(SCC(=O)c3ccccc3)n2C)cc1

A:
> 10 µg/mL
~2.5 µg/mL

====

- System: murine Syk tyrosine kinase protein (GST:Syk 6-242) (Mus musculus)
- Construct: made in house
- Test Method Notes: ADA method: displacement of the binding of scFv G4G11 with Syk (ELISA)
- Condition: small molecules at 10 μM, scFv G4G11 100 nM; read-out: In vit. inhib.: mean inhibition % of the binding of scFv G4G11 with Syk in the ADA method
Attribute Measured: inhibition at 10 µM
Enter the number, and then the unit.

See these solved cases before continuing.
O=C(C1=C(O)C(=O)N(Cc2cccnc2)C1c1cccc(Oc2ccccc2)c1)c1ccc(Cl)cc1 (centres unmarked) [Molecule 1]	86.5%
O=C1c2ccc(Oc3ccc4c(c3)C(=O)N(CC3CCCO3)C4=O)cc2C(=O)N1CC1CCCO1 (centres unmarked) [Molecule 62]	38.5%
CCOC(=O)C1=C(c2ccccc2)NC(SCC(=O)Nc2cccc(OC)c2)=C(C#N)C1c1ccco1 (centres unmarked) [Molecule 55]	42.5%
COc1cccc2cc(C(=O)C3=C(O)C(=O)N(CCN4CCOCC4)C3c3cccc(Br)c3)oc12 (centres unmarked) [Molecule 85]	18%
COc1cc(C2C(C(=O)c3cccs3)=C(O)C(=O)N2CCc2ccccc2)cc(Br)c1O (centres unmarked) [Molecule 8]	71%

Please give inhibition at 10 µM for each item listed below.
1. COC(=O)c1sc(N2C(=O)C(O)=C(C(=O)c3ccccc3)C2c2ccc(C)cc2)nc1C (centres unmarked) [Molecule 16]
2. CSc1nnc2c(n1)OC(c1cccc(OCc3ccccc3)c1)N(C(C)=O)c1ccccc1-2 (centres unmarked) [Molecule 63]
3. CCN(CC)CCCN1C(=O)C(O)=C(C(=O)c2ccc3c(c2)OCO3)C1c1cccnc1 (centres unmarked) [Molecule 51]
4. O=C(CCCN1C(=O)c2ccccc2C1=O)Nc1sc2c(c1C(=O)NCC1CCCO1)CCC2 (centres unmarked) [Molecule 30]
5. CN(C)CCCN1C(=O)C(O)=C(C(=O)c2ccc(S(=O)(=O)N(C)C)cc2)C1c1ccc(Cl)c(Cl)c1 (centres unmarked) [Molecule 50]
6. COc1ccc(C2(CNC(=O)c3ccc(NC(=O)c4ccco4)cc3)CCOCC2)cc1 [Molecule 73]
7. COc1cccc(C2C(C(=O)c3ccccc3)=C(O)C(=O)N2CCCN2CCOCC2)c1OC (centres unmarked) [Molecule 74]

A:
["67%", "38.5%", "46%", "51%", "46.5%", "28%", "27.5%"]
